Target or system HCT-15: recorded GI50 listed per item.
Property: GI50

INSERT INTO assay_data (molecule, property, readout_value) VALUES
  ('CCCN1C(=O)/C(=C(/O)C(=O)OCC)C(c2ccc(OC)c(OC)c2)C1=O (centres undefined)', 'GI50', '> 100 µM'),
  ('CC(C)CC1NC(=O)C(C(C)C)NC(=O)CC(C)COC(=O)C(CC(C)C)N(C)C(=O)C(C(C)C)NC(=O)C(C(C)C)OC1=O (centres undefined)', 'GI50', '> 50 µM'),
  ('COc1cc(OC)c2c3c(OC)cc(OC)c4c(=O)c(O)c(C[C@@H](C)O)c(c5c(C[C@@H](C)O)c(O)c(=O)c1c25)c43', 'GI50', '19.2 µM'),
  ('CCOC(=O)c1cc([N+](=O)[O-])cc([N+](=O)[O-])c1Sc1[nH]cnc2ncnc1-2', 'GI50', '4.33 µM'),
  ('NC(=O)C(=Cc1ccc(C(O)P(=O)(O)O)cc1)C(N)=O (centres undefined)', 'GI50', '> 100 µM'),
  ('CC(=O)OCC1OC(n2ncc(=O)[nH]c2=O)C(OC(C)=O)C1OC(C)=O (centres undefined)', 'GI50', '3.41 µM'),
  ('O/N=C(\CC(O)(C(F)(F)F)C(F)(F)F)c1cccs1', 'GI50', '> 10 µM'),
  ('COC12OCCN(C)C1=CC(=O)C1N=NCC12 (centres undefined)', 'GI50', '> 100 µM'),
  ('COP(=O)(/C=C/C(NC(=O)C(Cl)(Cl)Cl)c1ccccc1)OC (centres undefined)', 'GI50', '> 100 µM');

These entries and their values trace back to ChEMBL document CHEMBL1201862.
